Test: NCI Yeast Anticancer Drug Screen. Data for the wt1 strain (AID 149);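 note: 0% = growth of vehicle-treated wt1 cultures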
Conditions: S. cerevisiae wt1 strain (SPY 50644) growth inhibition; at 1.2 µM; hits give high values
About 79,000 compounds went through this panel and 15% of them were active in at least one assay; those are over-represented in the sample as a whole.
For each entry below, report its growth inhibition value.
Give just the numeric value; % need not be written.

Need growth inhibition of CN(N=O)N1C(=O)SCC(c2ccccc2)(c2ccccc2)C1=O , thanks.
-3

Which growth inhibition value belongs to O=C1C2CC[C@@H]3C(=O)C(Cl)(Cl)[C@@H]3CCC2C1(Cl)Cl (stereo partly specified) ?
0

So what's the measured growth inhibition for this one? CCCCCCCC1(N=[N+]=[N-])C(=O)c2ccccc2N(C)C1=O (stereo unspecified)
7

What value of growth inhibition has been reported for the following molecule? Cn1c(=O)c2ccccc2c2ccccc21
-5

For the molecule O=[N+]([O-])c1cccc([N+](=O)[O-])c1S(=O)(=O)c1ccccc1 , what growth inhibition is on record?
20

Form field: reported growth inhibition of O=C1c2cc([N+](=O)[O-])ccc2-c2cccc(F)c21
-1

So what's the measured growth inhibition for this one? CNC(=O)OCc1c(COC(=O)NC)c(-c2ccc(-c3ccccc3)cc2)n(C)c1C
-7

// returns reported growth inhibition for input CNC(=O)OCc1c(COC(=O)NC)c(-c2ccc(Cl)c(Cl)c2)n2c1CCC2
-53

What value of measured growth inhibition is listed for CCC(=O)c1cccc2ccccc12 ?
0

If you can, please state the reported growth inhibition value of CCN(CC)C(=S)N/N=C(/C)c1cccc(/C(C)=N\NC(=S)N(CC)CC)n1 .
-4

Which growth inhibition is reported for this molecule? [N-]=[N+]=NC1=C(c2ccccn2)C(=O)c2cccc3cccc1c23
2

----------
Experiment: NCI Yeast Anticancer Drug Screen. Data for the cln2 rad14 strain (AID 165);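 note: 0% = growth equal to vehicle treated cultures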
Settings: S. cerevisiae cln2 rad14 strain, at 50.0 µM (retest, dose inferred, filed as 5.0), hits give high values
Compounds without any hit were thinned out: in the full panel of roughly 79,000, 15% have a hit.
MEASUREMENT LABEL: growth inhibition (%)
Express the result in % but write the number alone.

Value lookup for growth inhibition; key = S=c1[nH]nc(Nc2ccc(Cl)cc2)s1
83

Fill in the blank: the reported growth inhibition of O=C(NCCCNCCCNC(=O)c1cc(-c2ccccc2)nc2ccccc12)c1cc(-c2ccccc2)nc2ccccc12 is ____.
42

Sample CCOc1ccc2c(c1)c(CC(=O)O)cn2C — what was its growth inhibition?
-21

Could you tell me which growth inhibition is on file for CN1Cc2ccccc2/C=C\c2ccccc21 ?
18

Given the molecule O=C(c1ccc(Cl)cc1)C1OC12C(=O)Nc1ccccc12 (stereo unspecified) , what is its reported growth inhibition?
100

Which growth inhibition is reported for this molecule? CC(/C=C/c1ccc(Cl)cc1)=N\NC(=S)NCC(C)C
37

----------
Experiment: NCI Yeast Anticancer Drug Screen. Data for the rad50 strain (AID 155);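 note: 0% = growth of vehicle-only cultures of the same strain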
Settings: S. cerevisiae rad50 strain growth inhibition; at 1.2 µM; hits give high values
Compounds without any hit were thinned out: in the full panel of roughly 79,000, 15% have a hit. Active and inactive are the calls of the source. Rule as the data show it: active = growth inhibition above about 70%; inactive = the rest.
MEASUREMENT LABEL: growth inhibition

What does the record list as growth inhibition for Cn1c(=O)c(-c2ccccc2)c(N=[N+]=[N-])c2ccccc21 ?
14% (inactive)

Give its growth inhibition value. Item: Oc1ccc2ccccc2c1C(c1ccc(Cl)cc1)c1c(O)ccc2ccccc12
-3% (inactive)

Can you look up the measured growth inhibition of COc1cc2c(cc1[N+](=O)[O-])C(=O)C(Br)(Br)CCC2 for me?
42% (inactive)

What does the data say about its growth inhibition? Entry: CC(C)=CC(=O)O[C@@H]1CC(C)(C)CC2C3=CCC4[C@]56CC[C@](O)(OC5)C(C)(C)C6CC[C@@]4(C)C3(C)CC[C@]21C(=O)O (stereo partly specified)
1% (inactive)

Could you share which growth inhibition value was measured for CC(C)c1cc(C(C)C)c(O)c(C([O-])[O-])c1.CC(C)c1cc(C(C)C)c(O)c(C([O-])[O-])c1.CC(C)c1cc(C(C)C)c(O)c(C([OH2+])[OH2+])c1.CC(C)c1cc(C(C)C)c(O)c(C([OH2+])[OH2+])c1.[Cu+2].[Cu+2].[OH3+].[OH3+] ?
5% (inactive)

Requested field: growth inhibition. Item: OC1(c2ccccc2)CSC2=Nc3ccccc3C3CCN1N23 (stereo unspecified)
-66% (inactive)

Recorded growth inhibition of CC(=O)[O][Bi]([c]1ccccc1)[c]1ccccc1 , please.
36% (inactive)

Name the recorded growth inhibition for Cc1cc2c(cc1C(=O)CCC(=O)O)CC1(C2)Cc2cc(C)c(C(=O)CCC(=O)O)cc2C1 .
3% (inactive)

So what does the record say about growth inhibition for O=Cc1cccc2ccc3ccccc3c12 ?
-7% (inactive)

For the compound shown here, O=[N+]([O-])c1cccc2nccc(NCCCO)c12 , give the reported growth inhibition.
-17% (inactive)

Find the recorded growth inhibition belonging to O=CC=C(c1ccccc1)c1ccccc1 and report it.
8% (inactive)

So what's the measured growth inhibition for this one? COc1cc(/C=C2\CCc3ccccc3C2=O)cc(OC)c1OC
6% (inactive)

Name the reported growth inhibition value associated with the compound Nc1ccccc1CC(O)C(=O)O (stereo unspecified)
3% (inactive)

// growth inhibition lookup, key: CC(=O)ON1C(=O)c2cccc3cccc(c23)C1=O
18% (inactive)

Endpoint output: growth inhibition of O=C(O)c1ccccc1NC(=S)c1ccccc1 . Value?
-3% (inactive)

Value lookup for growth inhibition; key = O=CNc1ccc2c(c1)C(=O)c1ccccc1-2
13% (inactive)

Sample CC(=O)Oc1cc(-c2cc(OC(C)=O)c(OC(C)=O)c3ccccc23)c2ccccc2c1OC(C)=O — what was its growth inhibition?
4% (inactive)

Which growth inhibition is listed for OC(COc1cccc2ccccc12)CN1CCOCC1 (stereo unspecified) ?
11% (inactive)

What growth inhibition value was documented for this compound, CCC(C(=O)O)C1=C(c2ccccc2)CCc2ccccc21 (stereo unspecified) ?
10% (inactive)

Using the record for COc1cc(C2c3cc4c(cc3OC(Nc3ccccc3)C2C)OCO4)cc(OC)c1O (stereo unspecified) , report its growth inhibition.
2% (inactive)

Given Fc1ccc(NC(=S)SCc2ccc(Cl)c(Cl)c2)cc1F , state its recorded growth inhibition.
-15% (inactive)

----------
Experiment: NCI Yeast Anticancer Drug Screen. Data for the mlh1 rad18 strain (AID 175)
Settings: S. cerevisiae mlh1 rad18 strain growth inhibition; at 50.0 µM (retest, dose inferred, filed as 5.0); hits give high values
Compounds without any hit were thinned out: in the full panel of roughly 79,000, 15% have a hit.
growth inhibition vs 80%: at or above is satisfied, below is not satisfied.

Quick check, growth inhibition >= 80%? O=C(O)c1ccccc1-c1ccccc1C(=O)Nc1ccc2c(c1)Cc1ccccc1-2
not satisfied

Decide: is the reported value of growth inhibition for CCS(=O)(=O)c1ccc(/C=C/C=N/NC(=S)NCC(C)C)cc1 equal to or greater than 80%?
not satisfied

Kindly determine if growth inhibition recorded for O=C(O)C1CCCCC1c1c2ccc(=O)c(O)c-2oc2c(O)c(O)ccc12 (centres undefined) is above or exactly 80%.
satisfied

Hi team, for COc1ccccc1N=NC(C(=O)c1ccccc1)C(=O)c1ccccc1 , is the recorded growth inhibition at or above 80%?
satisfied

Please check the record CSC(=S)Nc1cc(C)ccn1 and state if its growth inhibition is at or above 80%.
satisfied

Decide: growth inhibition of CSC(=S)N/N=C(\C)c1cccc(C)n1 >= 80%?
satisfied

Entry C[C@H](CCC(=O)NN)[C@H]1CC[C@H]2[C@@H]3CC[C@@H]4C[C@H](O)CC[C@]4(C)[C@H]3CC[C@]12C : is its growth inhibition no less than 80%?
not satisfied

Does growth inhibition meet or surpass 80% for CCC[CH2][Ge]([CH2]CCC)([CH2]CCC)[O]C(=O)C(OC)c1ccccc1 (centres undefined) ?
not satisfied

Kindly determine if growth inhibition recorded for COc1cc(/C=C2\CCc3ccccc3C2=O)cc(OC)c1OC is above or exactly 80%.
not satisfied

Assess whether reported growth inhibition for CCOc1ccc2c(c1)c(CC(=O)O)cn2C sits at 80% or higher.
satisfied

Hi team, for CN(C)C[C@H]1CC[C@@H](CN(C)C)C1=O , is the recorded growth inhibition at or above 80%?
not satisfied

Reported growth inhibition reaches at least 80% for CCC#CCCCOC(=O)c1cc([N+](=O)[O-])cc([N+](=O)[O-])c1 ?
satisfied

Check the entry C[S+](C)C1(c2ccccc2)C(=O)c2ccccc2C1=O : does growth inhibition equal or exceed 80%?
not satisfied

Given CC(=O)ON1C(=O)c2cccc3cccc(c23)C1=O , state whether its growth inhibition is at least 80%.
satisfied

Determine whether this compound has growth inhibition no lower than 80%: Cc1cc(I)ccc1N
not satisfied

// inclusive: growth inhibition at least 80%? input: O=[N+]([O-])c1ccc2c(c1)C(N1CCN(CCO)CC1)Cc1ccc(F)cc1S2 (centres undefined)
not satisfied

Hello, I need to know if CN(C)c1ccc(C(C#N)=C(C#N)C#N)cc1 has measured growth inhibition not below 80%. Thanks!
not satisfied

Identify whether the reported growth inhibition of the following compound is 80% or greater: Nc1ccccc1CC(O)C(=O)O (centres undefined)
satisfied

// inclusive: growth inhibition at least 80%? input: CC(/C=C/c1ccc2c(c1)OCO2)[N+](=O)[O-] (centres undefined)
satisfied

hey, is growth inhibition for this one >= 80%? Brc1ccc(-c2cc3c(cc2C2SCCS2)OCO3)cc1
not satisfied

Quick check: does S=C(S)NN1CCOCC1 have growth inhibition greater than or equal to 80%?
satisfied

Check this compound for growth inhibition at or above 80%: Cc1ccc(-c2ccc(Nc3c4ccccc4nc4ccccc34)cc2)cn1
satisfied

Is it the case that COC(=O)CCNc1c2ccccc2nc2cccc([N+](=O)[O-])c12 has growth inhibition reaching or exceeding 80%?
satisfied
